# tested target: hBGT1 (Homo sapiens, UniProt P48065)
# Construct: expressed in transfected cells
# Format: cell-based
# measurement context: 30 nM [3H]GABA, 3 min, CHO Flp-In cells stably expressing hBGT1; read-out: pIC50 ± S.E.M. hBGT1 (converted)
Let's look at some molecules and their measured IC50.
The response must be a number in µM with no trailing unit.

Please review the entries below; each comes with its answer.
C[C@H]1N=C(N)NC[C@@H]1C(=O)O (single isomer, unassigned) [u-15b] :: 77.6
C[C@@H]1N=C(N)NC[C@@H]1C(=O)O (single isomer, unassigned) [l-15a] :: 33.9
NC1=NC=C(C(=O)O)CN1.O=C(O)C(F)(F)F :: 46.8

Prompt: # query: IC50 of entry C[C@@H]1N=C(N)NC[C@@H]1C(=O)O (relative stereo) [l-15]
Completion: 41.7

Prompt: Would you kindly repeat that for C[C@@H]1N=C(N)NC[C@@H]1C(=O)O (single isomer, unassigned) [l-15b] ?
Completion: 417

Prompt: Would you kindly repeat that for NC1=NCC(C(=O)O)CC1 (stereo not shown) [compound 2, reference compound] ?
Completion: 12.9

Prompt: Would you kindly repeat that for C[C@H]1N=C(N)NC[C@@H]1C(=O)O (single isomer, unassigned) [u-15a] ?
Completion: 269

----------
# tested target: hBGT1 wt (Homo sapiens, UniProt P48065)
# Construct: expressed in transfected cells; host or cells: tsA201 cells, transient (PolyFect), pcDNA5/FRT vector
# assay explanation: [3H]GABA uptake inhibition at wt hBGT1 transiently expressed in tsA201 cells
# Assay type: cell-based
# measurement context: 30 nM [3H]GABA, tsA201 cells transiently expressing wt hBGT1; read-out: IC50 BGT1 wt
IC50 strictly less than 200 µM = criterion met. Otherwise criterion not met.

NC1=NCC(C(=O)O)=CN1Cc1ccccc1 [compound 9] :: criterion not met
Cc1ccsc1C(=CCCN1CC(C(=O)O)CN=C1N)c1sccc1C (stereo not shown) [compound 8] :: criterion not met
NC1=NCC(C(=O)O)CN1 (stereo not shown) [ATPCA, reference compound] :: criterion met

Prompt: Determine whether this molecule shows IC50 lower than 200 µM (ties excluded): NC1=NC=C(C(=O)O)CN1.O=C(O)C(F)(F)F [compound 11]
Completion: criterion not met

Prompt: Would you kindly repeat that for CCN1CC(C(=O)O)CN=C1N.Cl (stereo not shown) [compound 3] ?
Completion: criterion not met

Prompt: Would you kindly repeat that for NC1=NCC(C(=O)O)CC1 (stereo not shown) [compound 2, reference compound] ?
Completion: criterion met

Prompt: Would you kindly repeat that for Cl.NC1=NCC(C(=O)O)CN1Cc1ccccc1 (stereo not shown) [compound 4] ?
Completion: criterion not met

----------
# tested target: hGAT3 L314Q (Homo sapiens, UniProt P48066, L314Q)
# Construct: expressed in transfected cells; host or cells: tsA201 cells, transient (PolyFect), pcDNA5/FRT vector
# Sequence (P48066 whole entry L314Q): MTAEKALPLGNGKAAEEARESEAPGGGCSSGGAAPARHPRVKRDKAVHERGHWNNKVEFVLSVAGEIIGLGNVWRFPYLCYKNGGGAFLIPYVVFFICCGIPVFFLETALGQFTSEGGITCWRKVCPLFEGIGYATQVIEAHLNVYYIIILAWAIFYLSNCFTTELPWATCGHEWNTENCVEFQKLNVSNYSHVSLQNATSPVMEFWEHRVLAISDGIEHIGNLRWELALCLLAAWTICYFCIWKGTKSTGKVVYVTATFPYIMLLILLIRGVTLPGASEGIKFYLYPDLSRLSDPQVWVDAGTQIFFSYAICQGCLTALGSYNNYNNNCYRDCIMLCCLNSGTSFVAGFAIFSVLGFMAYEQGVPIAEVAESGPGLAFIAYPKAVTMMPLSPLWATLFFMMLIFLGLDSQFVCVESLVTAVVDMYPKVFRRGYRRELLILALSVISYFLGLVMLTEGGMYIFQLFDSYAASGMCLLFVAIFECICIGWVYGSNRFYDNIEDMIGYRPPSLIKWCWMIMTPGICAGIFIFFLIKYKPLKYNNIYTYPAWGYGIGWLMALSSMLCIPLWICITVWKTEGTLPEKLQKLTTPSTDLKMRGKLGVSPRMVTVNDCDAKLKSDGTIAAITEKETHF
# assay explanation: [3H]GABA uptake inhibition at hGAT3 L314Q transiently expressed in tsA201 cells
# Format: cell-based
# measurement context: 30 nM [3H]GABA, transient expression, read-out: IC50 GAT3 L314Q
readout kind: IC50 (µM)
The response must be a number in µM with no trailing unit.

Please review the entries below; each comes with its answer.
NCCCC(=O)O [GABA, γ-Aminobutyric acid, reference compound] :: 5.2
NC1=NCC(C(=O)O)CN1 (stereo not shown) [ATPCA, reference compound] :: 66

Prompt: Lab request: please report IC50 under test system hGAT3 L314Q (Homo sapiens, UniProt P48066, L314Q) for NC1=NCC(C(=O)O)CC1 (stereo not shown) [compound 2, reference compound]
Completion: 695

Prompt: Would you kindly repeat that for Cl.NC1=NCC(C(=O)O)CN1Cc1ccccc1 (stereo not shown) ?
Completion: 500

----------
Let's look at some compounds and their measured IC50.
# tested target: hGAT2 (Homo sapiens, UniProt Q9NSD5)
# Construct: expressed in transfected cells
# Sequence (Q9NSD5 whole entry): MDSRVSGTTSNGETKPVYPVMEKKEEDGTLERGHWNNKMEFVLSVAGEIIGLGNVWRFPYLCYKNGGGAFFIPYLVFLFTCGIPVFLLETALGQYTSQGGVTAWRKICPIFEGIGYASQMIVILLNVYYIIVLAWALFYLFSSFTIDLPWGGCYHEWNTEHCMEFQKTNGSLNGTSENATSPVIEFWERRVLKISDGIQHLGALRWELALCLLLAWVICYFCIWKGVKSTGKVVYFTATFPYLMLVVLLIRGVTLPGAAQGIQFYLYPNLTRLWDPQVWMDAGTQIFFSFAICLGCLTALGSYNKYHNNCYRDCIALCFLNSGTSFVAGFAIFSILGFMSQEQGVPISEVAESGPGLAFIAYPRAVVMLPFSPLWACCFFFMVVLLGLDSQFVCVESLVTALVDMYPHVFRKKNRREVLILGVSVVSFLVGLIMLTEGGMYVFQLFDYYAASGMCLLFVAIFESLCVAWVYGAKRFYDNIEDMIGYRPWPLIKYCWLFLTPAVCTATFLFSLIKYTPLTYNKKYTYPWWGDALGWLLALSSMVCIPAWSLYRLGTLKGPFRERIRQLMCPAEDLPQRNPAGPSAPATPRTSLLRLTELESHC
# assay explanation: [3H]GABA uptake inhibition at hGAT2 stably expressed in CHO Flp-In cells
# Type: cell-based
# measurement context: 30 nM [3H]GABA, 3 min, CHO Flp-In cells stably expressing hGAT2; read-out: IC50 hGAT2
# Experimental: CHO Flp-In and tsA201 cells were cultured at 37 °C in a humidified atmosphere of 95% O2 and 5% CO2. […] Uptake assays were performed in PDL-coated white 96-well polystyrene cell culture microplates (PerkinElmer, Boston, MA, USA) as previously described[38],[63]. […] After termination, scintillation liquid (MicroScint-20, PerkinElmer) was added and the radioactivity measured in a TopCount NXT Microplate Scintillation Counter (PerkinElmer). […]

Please review the entries below; each comes with its answer.
C[C@H]1N=C(N)NC[C@@H]1C(=O)O (single isomer, unassigned) [u-15b] :: > 1000 µM
C[C@H]1N=C(N)NC[C@@H]1C(=O)O (single isomer, unassigned) [u-15a] :: > 1000 µM
NC1=NC(CCc2ccccc2)C(C(=O)O)CN1 (stereo not drawn) [l-18] :: > 1000 µM

Prompt: # query: IC50 of entry CC1=C(C(=O)O)CNC(N)=N1 [compound 12]
Completion: > 1000 µM

Prompt: Would you kindly repeat that for CC(C)C1=C(C(=O)O)CNC(N)=N1 [compound 14] ?
Completion: 1010 µM

Prompt: Would you kindly repeat that for CCCC1=C(C(=O)O)CNC(N)=N1 [compound 13] ?
Completion: 530 µM

Prompt: Would you kindly repeat that for CCN1CC(C(=O)O)CN=C1N.Cl (stereo not shown) [compound 3] ?
Completion: > 1000 µM

Prompt: Would you kindly repeat that for CCCC1N=C(N)NCC1C(=O)O (stereo not shown) [compound 16] ?
Completion: 601 µM

----------
# tested target: hBGT1 (Homo sapiens)
# Construct: expressed in transfected cells
# Sequence (P48065 1-614): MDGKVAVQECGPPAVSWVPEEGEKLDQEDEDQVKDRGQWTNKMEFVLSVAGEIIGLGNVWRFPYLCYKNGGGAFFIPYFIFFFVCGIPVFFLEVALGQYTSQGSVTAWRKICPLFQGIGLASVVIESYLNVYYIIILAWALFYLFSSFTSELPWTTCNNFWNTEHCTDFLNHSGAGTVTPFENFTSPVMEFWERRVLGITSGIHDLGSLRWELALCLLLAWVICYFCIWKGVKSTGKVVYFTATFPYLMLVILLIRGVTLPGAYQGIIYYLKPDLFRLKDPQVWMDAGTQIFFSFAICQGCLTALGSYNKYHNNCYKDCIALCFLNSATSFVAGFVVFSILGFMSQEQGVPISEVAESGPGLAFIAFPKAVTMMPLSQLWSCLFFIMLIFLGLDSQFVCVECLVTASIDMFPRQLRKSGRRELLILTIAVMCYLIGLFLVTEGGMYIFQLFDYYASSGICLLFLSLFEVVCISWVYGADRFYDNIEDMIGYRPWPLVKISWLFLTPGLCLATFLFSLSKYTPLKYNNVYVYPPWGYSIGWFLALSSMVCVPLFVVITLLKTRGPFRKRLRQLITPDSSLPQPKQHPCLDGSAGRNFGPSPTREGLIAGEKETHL
# Assay type: cell-based
# measurement context: [3H]GABA uptake, CHO Flp-In cells
readout kind: decrease of hBGT1 inhibitory potency compared to ATPCA

Please review the entries below; each comes with its answer.
Cl.NC1=NCC(C(=O)O)CN1Cc1ccccc1 (stereo not shown) :: 20–65 fold
NC1=NCC(C(=O)O)CN1Cc1ccc(-c2ccccc2)cc1 (stereo not shown) :: 20–65 fold

Query compound follows.
Prompt: # query: decrease of hBGT1 inhibitory potency compared to ATPCA of entry NC1=NC=C(C(=O)O)CN1.O=C(O)C(F)(F)F
Completion: 19 fold

----------
# tested target: hBGT1 (Homo sapiens, UniProt P48065)
# Construct: expressed in transfected cells
# assay explanation: FLIPR Membrane Potential (FMP) assay at hBGT1 stably expressed in CHO Flp-In cells
# Type: cell-based
# measurement context: concentration-dependent increase in fluorescence signal
readout kind: substrate character at hBGT1 in FMP assay

CCN1CC(C(=O)O)CN=C1N.Cl (centres unmarked) [compound 3] :: substrates for hBGT1
C[C@@H]1N=C(N)NC[C@@H]1C(=O)O (single isomer, unassigned) [l-15a] :: substrates for hBGT1
NC1=NCC(C(=O)O)CN1Cc1ccc(-c2ccccc2)cc1 (centres unmarked) [compound 5] :: substrates for hBGT1
NC1=NCC(C(=O)O)CC1 (centres unmarked) [compound 2, reference compound] :: substrates for hBGT1

Query compound follows.
Prompt: # query: substrate character at hBGT1 in FMP assay of entry NC1=NC=C(C(=O)O)CN1.O=C(O)C(F)(F)F [compound 11]
Completion: substrates for hBGT1

----------
# tested target: hBGT1 E52Y (Homo sapiens, UniProt P48065, E52Y)
# assay explanation: cell-based
# measurement context: pIC50 ± S.E.M. BGT1 E52Y, 30 nM [3H]GABA, tsA201 cells, transient expression
readout kind: pIC50
Quick note: pIC50 values are minus log10 of concentrations in mol/L.

Prompt: # query: pIC50 of entry NC1=NCC(C(=O)O)CC1 (stereo not shown) [compound 2, reference compound]
Completion: 4.43

Hey, just so you know, these numbers are from paper PMC7400577.
